Provide the reported apical domain:HSA of each item.
test-target: T1, CD71 apical domain (UniProt P02786 189-383, limits assumed)
T1 construct: domain: Apical domain
T1 sequence (P02786 189-383 limits assumed): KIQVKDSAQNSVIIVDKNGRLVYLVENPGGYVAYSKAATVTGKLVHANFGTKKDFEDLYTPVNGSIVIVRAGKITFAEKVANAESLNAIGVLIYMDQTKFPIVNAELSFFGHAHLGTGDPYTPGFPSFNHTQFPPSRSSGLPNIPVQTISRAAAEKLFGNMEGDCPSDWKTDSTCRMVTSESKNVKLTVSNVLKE
assay-explanation: solution ELISA, signal ratio to HSA
Give bare numbers.

Give apical domain:HSA for each of the items listed below.
1. SEQ ID NO 142 (designed binder, FN3 domain) MLPAPKNLVVSRVTEDSARLSWTAPDAAFDSFFIGYLEPQPPGEAIGLQVPGSERSYDLTGLKPGTEYNVTIQGVKGGFPSHPLKAQFTT
2. SEQ ID NO 133 (designed binder, FN3 domain) MLPAPKNLVVSRVTEDSARLSWTAPDAAFDSFYIAYAEPRPDGEAIYLYVPGSERSYDLTGLKPGTEYSVLIHGVKGGLLSSPLDAFFTT
3. SEQ ID NO 189 (designed binder, FN3 domain) MLPAPKNLVVSRVTEDSARLSWTAPDAAFDSFYIAYAEPRPDGEAIQLTVPGSERSYDLTGPKPGTEYWVLIQGVKGGGSSVPLVAYFTT
4. SEQ ID NO 172 (designed binder, FN3 domain) MLPAPKNLVVSRVTEDSARLSWTAPDAAFDSFFIGYLEPQPPGEAIVLTVPGSERSYDLTGLKPGTEYNVTIQGVKGGFPSMPLASFTT
5. SEQ ID NO 128 (designed binder, FN3 domain) MLPAPKNLVVSRVTEDSARLSWTAPDAAFDSFYIAYAEPRPDGEAIVLRVPGSERSYDLTGLKPGTEYSVLIHGVKGGLLSSPLIASFTT

181
186
0.8
12.5
209
